biological target: CYP2C9 Lys206Ala mutant (Homo sapiens, UniProt P11712, K206A); assay: Diclofenac 4′-hydroxylation kinetics, Lys206Ala mutant; details: human, pH 7.4, Km, diclofenac 4′-hydroxylation, + dapsone 100 μM
metric: Km at 7 min
Kindly write the number and append the unit.

-- ask Using the record for O=C(O)Cc1ccccc1Nc1c(Cl)cccc1Cl [Diclofenac, diclofenac] , report its Km at 7 min.
-- reply 2.45 µM

---

biological target: WT CYP2C9 (Homo sapiens); assay: Diclofenac 4′-hydroxylation kinetics, recombinant WT CYP2C9; conditions: human, pH 7.4, Km, diclofenac 4′-hydroxylation, + dapsone 100 μM
metric: Km at 7 min
Kindly write the number and append the unit.

-- ask Using the record for `O=C(O)Cc1ccccc1Nc1c(Cl)cccc1Cl` , report its Km at 7 min.
-- reply 1.6 µM
